- procedure.text: Aqueous solubility of the compound in pH 6.8 phosphate buffer after 24 hrs by HPLC analysis
- Assay type: physicochemical
property: solubility at 24 h (µg/mL)

Take a look at these entries with their results.
CC(C)OC(=O)N1CCC2(CC1)CC(CCCOc1ccc(S(C)(=O)=O)cc1)C2 : 0.17
CC(C)OC(=O)N1CCC2(CC1)CC(CCCOc1ccc(C(=O)NCC(N)=O)c(F)c1)C2 : 1.77

I. CC(C)OC(=O)N1CCC2(CC1)CC(CCCOc1ccc(C(=O)NC3CC3)c(F)c1)C2
II. CC(C)OC(=O)N1CCC2(CC1)CC(CCCOc1ccc(C(=O)N3CCC3)c(F)c1)C2
III. CC(C)OC(=O)N1CCC2(CC1)CC(CCCOc1ccc(C(=O)NC3CC3)cn1)C2
Exercise: Highest solubility at 24 h first, then in falling order down to the smallest. When ranking, write the labels in the order the request describes.
Solution: II, III, I
(II: 3.43 µg/mL, III: 2.24 µg/mL, I: 0.21 µg/mL)

---

- procedure.text: Half life in Sprague-Dawley rat plasma at 3 mg/kg, iv by liquid chromatography-tandem mass spectrometry analysis
- Format: ADME, organism-based
property: half-life (min)
The figure you give is taken to be in min; do not add the unit.

Exercise: Give the measured half-life for CC(C)OC(=O)N1CCC2(CC1)CC(CCCOc1ccc(C(=O)NCC(N)=O)c(F)c1)C2
Solution: 50.5

---

- system.under.test: UniProt Q8TDV5
- Sequence (Q8TDV5 whole entry): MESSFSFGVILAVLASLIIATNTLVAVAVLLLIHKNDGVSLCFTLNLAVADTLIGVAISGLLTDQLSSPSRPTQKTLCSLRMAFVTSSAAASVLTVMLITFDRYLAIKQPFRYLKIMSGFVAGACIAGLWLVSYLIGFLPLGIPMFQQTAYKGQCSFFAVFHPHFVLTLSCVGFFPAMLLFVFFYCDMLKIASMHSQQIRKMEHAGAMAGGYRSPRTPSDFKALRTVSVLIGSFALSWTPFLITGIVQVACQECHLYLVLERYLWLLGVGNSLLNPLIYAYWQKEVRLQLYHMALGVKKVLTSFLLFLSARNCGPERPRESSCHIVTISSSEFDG
- procedure.text: Agonist activity at human GPR119 expressed in Flp-In-T-Rex-HEK293 cells assessed as increase in intracellular cAMP level after 30 mins by HTRF assay
pEC50: −log10 of the molar value.
property: pEC50

CC(C)OC(=O)N1CCC2(CC1)CC(CCCOc1ccc(S(C)(=O)=O)c(F)c1)C2 : 7.74

I. CC1(OC(=O)N2CCC3(CC2)CC(CCCOc2ccc(S(C)(=O)=O)c(F)c2)C3)CC1
II. CC(C)OC(=O)N1CCC2(CC1)CC(CCCOc1ccc(C(=O)N3CC(O)C3)c(F)c1)C2
Exercise: Among I and II , whose measured pEC50 is the smaller figure? Pick one; state its label.
Solution: II
(II: 7.40, I: 7.89)

I. CC(C)(C)OC(=O)N1CCC2(CC1)CC(CCCCOc1ccc(S(C)(=O)=O)cc1)C2
II. CC(C)(C)COC(=O)N1CCC2(CC1)CC(CCCOc1ccc(S(C)(=O)=O)c(F)c1)C2
Exercise: Please state the entry with greater pEC50 among I and II . Pick one; state its label.
Solution: II
(II: 7.51, I: 6.81)

1. CCc1cnc(N2CCC3(CC2)CC(CCCOc2ccc(S(C)(=O)=O)cc2F)C3)nc1
2. CC(C)OC(=O)N1CCC2(CC1)CC(CCCOc1ccc(C(=O)NC3CC3)nc1)C2
Exercise: Among 1 and 2 , whose measured pEC50 is the smaller figure? Pick one; state its label.
Solution: 1

---

- procedure.text: Solubility of the compound in fasted state simulated intestinal fluid incubated for 2 hrs in shaker and subsequently incubated at 37 degC for 22 hrs in water bath by HPLC analysis
- Type: physicochemical
property: solubility at 24 h (µg/mL)

CC(C)c1noc(N2CCC3(CC2)CC(CCCOc2ccc(S(C)(=O)=O)cc2)C3)n1 : 2.51
CC(C)OC(=O)N1CCC2(CC1)CC(CCCOc1ccc(C(=O)NC3CC3)c(F)c1)C2 : 8.58
CC(C)OC(=O)N1CCC2(CC1)CC(CCCOc1ccc(C(=O)NCC(N)=O)c(F)c1)C2 : 18.4

A. CC(C)OC(=O)N1CCC2(CC1)CC(CCCOc1ccc(S(C)(=O)=O)c(F)c1)C2
B. CCc1cnc(N2CCC3(CC2)CC(CCCOc2ccc(S(C)(=O)=O)cc2)C3)nc1
C. CS(=O)(=O)c1ccc(OCCCC2CC3(CCN(C(=O)OC4CCCC4)CC3)C2)cc1F
D. CC(C)OC(=O)N1CCC2(CC1)CC(CCCOc1ccc(C(=O)N3CCCC3)c(F)c1)C2
Exercise: Highest solubility at 24 h first, then in falling order down to the smallest. When ranking, write the labels in the order the request describes.
Solution: D, C, A, B

I. CC(C)(C)OC(=O)N1CCC2(CC1)CC(CCCOc1ccc(S(C)(=O)=O)cc1)C2
II. CC1(OC(=O)N2CCC3(CC2)CC(CCCOc2ccc(S(C)(=O)=O)c(F)c2)C3)CC1
III. CC(C)OC(=O)N1CCC2(CC1)CC(CCCOc1ccc(S(C)(=O)=O)cc1)C2
Exercise: rank_up(items): orders items by reported solubility at 24 h in ascending numerical order. When ranking, write the labels in the order the request describes.
Solution: II, I, III
(II: 1.27 µg/mL, I: 3.48 µg/mL, III: 7.09 µg/mL)

---

- procedure.text: Volume of distribution at steady state in Sprague-Dawley rat plasma at 3 mg/kg, iv by liquid chromatography-tandem mass spectrometry analysis
- Assay type: ADME, organism-based
- test.settings: read-out: Vdss
property: Vd (L/kg)
The figure you give is taken to be in L/kg; do not add the unit.

Exercise: Give the measured Vd for CC(C)OC(=O)N1CCC2(CC1)CC(CCCOc1ccc(C(=O)NCC(N)=O)c(F)c1)C2
Solution: 1.01

---

- procedure.text: Oral bioavailability in Sprague-Dawley rat plasma at 10 mg/kg by liquid chromatography-tandem mass spectrometry analysis
- Assay type: ADME, organism-based
property: bioavailability (%)
The figure you give is taken to be in %; do not add the unit.

Exercise: Give the measured bioavailability for CC(C)OC(=O)N1CCC2(CC1)CC(CCCOc1ccc(C(=O)NCC(N)=O)c(F)c1)C2
Solution: 88.6

---

- system.under.test: Cytochrome P450 2C9 (Homo sapiens)
- Sequence (P11712 whole entry): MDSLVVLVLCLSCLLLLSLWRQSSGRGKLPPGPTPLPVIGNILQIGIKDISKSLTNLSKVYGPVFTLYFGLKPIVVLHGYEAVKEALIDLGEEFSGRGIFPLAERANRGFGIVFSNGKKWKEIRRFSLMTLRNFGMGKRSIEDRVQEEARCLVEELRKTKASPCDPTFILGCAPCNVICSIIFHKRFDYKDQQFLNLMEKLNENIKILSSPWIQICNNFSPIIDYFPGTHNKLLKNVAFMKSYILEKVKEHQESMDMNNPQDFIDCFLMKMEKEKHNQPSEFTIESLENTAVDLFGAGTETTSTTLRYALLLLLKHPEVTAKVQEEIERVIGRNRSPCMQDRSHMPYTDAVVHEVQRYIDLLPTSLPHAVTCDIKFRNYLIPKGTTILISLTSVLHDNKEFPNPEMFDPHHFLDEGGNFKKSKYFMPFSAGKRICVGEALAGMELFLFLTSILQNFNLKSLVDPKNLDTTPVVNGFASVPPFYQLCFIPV
- procedure.text: Inhibition of CYP2C9 in human liver microsomes
- Format: ADME
- test.settings: read-out: IC50
pIC50: −log10 of the molar value.
property: pIC50

Take a look at these entries with their results.
CC(C)OC(=O)N1CCC2(CC1)CC(CCCOc1ccc(C(=O)N3CCCC3)c(F)c1)C2 : > 5.00
CC(C)OC(=O)N1CCC2(CC1)CC(CCCOc1ccc(C(=O)N3CC(O)C3)c(F)c1)C2 : > 5.00

Proceed to the following item.
Exercise: Give pIC50 for CC(C)OC(=O)N1CCC2(CC1)CC(CCCOc1ccc(C(=O)N3CCC3)c(F)c1)C2 tested on Cytochrome P450 2C9 (Homo sapiens).
Solution: > 5.00

---

Known pIC50 of a selection of compounds
- system.under.test: UniProtKB P33261
- Sequence (P33261 whole entry): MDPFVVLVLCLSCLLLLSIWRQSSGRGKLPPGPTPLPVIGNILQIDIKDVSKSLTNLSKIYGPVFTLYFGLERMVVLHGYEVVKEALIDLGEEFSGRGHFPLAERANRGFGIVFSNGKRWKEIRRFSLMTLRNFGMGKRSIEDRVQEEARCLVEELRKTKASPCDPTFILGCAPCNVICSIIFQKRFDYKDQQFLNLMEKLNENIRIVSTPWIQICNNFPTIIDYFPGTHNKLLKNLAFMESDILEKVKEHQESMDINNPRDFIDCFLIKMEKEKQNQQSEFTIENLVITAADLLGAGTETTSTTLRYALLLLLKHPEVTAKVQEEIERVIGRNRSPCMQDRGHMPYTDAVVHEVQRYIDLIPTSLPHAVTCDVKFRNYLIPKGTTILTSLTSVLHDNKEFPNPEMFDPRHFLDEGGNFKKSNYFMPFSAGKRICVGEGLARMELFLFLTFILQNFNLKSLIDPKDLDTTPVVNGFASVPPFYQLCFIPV
- procedure.text: Inhibition of CYP2C19 in human liver microsomes
- Format: ADME
- test.settings: read-out: IC50
pIC50: −log10 of the molar value.

Take a look at these entries with their results.
CC(C)OC(=O)N1CCC2(CC1)CC(CCCOc1ccc(C(=O)N3CCCC3)c(F)c1)C2 : > 5.00
CC(C)OC(=O)N1CCC2(CC1)CC(CCCOc1ccc(C(=O)N3CCC3)c(F)c1)C2 : > 5.00

Proceed to the following item.
Exercise: Give the measured pIC50 for CC(C)OC(=O)N1CCC2(CC1)CC(CCCOc1ccc(C(=O)N3CC(O)C3)c(F)c1)C2
Solution: > 5.00

---

- procedure.text: Clearance in Sprague-Dawley rat plasma at 3 mg/kg, iv or 10 mg/kg, po by liquid chromatography-tandem mass spectrometry analysis
- Assay type: ADME, organism-based
property: clearance (mL/min/kg)
The figure you give is taken to be in mL/min/kg; do not add the unit.

Exercise: Give the measured clearance for CC(C)OC(=O)N1CCC2(CC1)CC(CCCOc1ccc(C(=O)NCC(N)=O)c(F)c1)C2
Solution: 15.5

---

- procedure.text: Aqueous solubility of the compound in pH 6.8 phosphate buffer after 24 hrs by HPLC analysis
- Format: physicochemical
property: solubility at 24 h (µg/mL)

P. CC(C)OC(=O)N1CCC2(CC1)CC(CCCOc1ccc(C(=O)NC3CC3)nc1)C2
Q. CC(C)OC(=O)N1CCC2(CC1)CC(CCCOc1ccc(C(=O)N3CCCC3)c(F)c1)C2
Exercise: Among P and Q , whose measured solubility at 24 h is the smaller figure? Pick one; state its label.
Solution: P
(P: 2.11 µg/mL, Q: 3.85 µg/mL)

---

- system.under.test: Cytochrome P450 1A2 (Homo sapiens, UniProt P05177)
- Sequence (P05177 whole entry): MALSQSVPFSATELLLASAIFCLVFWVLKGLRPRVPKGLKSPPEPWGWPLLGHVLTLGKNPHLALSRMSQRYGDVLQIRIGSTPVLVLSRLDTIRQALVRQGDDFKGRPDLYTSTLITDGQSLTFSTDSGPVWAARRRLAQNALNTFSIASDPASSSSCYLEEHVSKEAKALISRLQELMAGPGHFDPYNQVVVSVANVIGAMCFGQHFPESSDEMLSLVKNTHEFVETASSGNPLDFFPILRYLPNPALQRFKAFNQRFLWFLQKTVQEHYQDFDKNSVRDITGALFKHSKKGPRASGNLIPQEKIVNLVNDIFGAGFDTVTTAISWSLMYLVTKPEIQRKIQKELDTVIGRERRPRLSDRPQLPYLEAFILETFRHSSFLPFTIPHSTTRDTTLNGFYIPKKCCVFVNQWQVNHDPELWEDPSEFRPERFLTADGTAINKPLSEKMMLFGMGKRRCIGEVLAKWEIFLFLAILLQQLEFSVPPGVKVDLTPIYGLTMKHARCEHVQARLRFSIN
- procedure.text: Inhibition of CYP1A2 in human liver microsomes
- Format: ADME
- test.settings: read-out: IC50
property: IC50

Exercise: Give IC50 for CC(C)OC(=O)N1CCC2(CC1)CC(CCCOc1ccc(C(=O)N3CCCC3)c(F)c1)C2 tested on Cytochrome P450 1A2 (Homo sapiens, UniProt P05177).
Solution: < 10 µM

---

- system.under.test: UniProt:Q8TDV5
- procedure.text: Agonist activity at human GPR119 expressed in Flp-In-T-Rex-HEK293 cells assessed as increase in intracellular cAMP level after 30 mins by HTRF assay
pEC50: −log10 of the molar value.
property: pEC50

CC(C)OC(=O)N1CCC2(CC1)CC(CCCOc1ccc(C(=O)N(C)C3CC3)c(F)c1)C2 : 7.17
CC(C)OC(=O)N1CCC2(CC1)CC(CCCOc1ccc(C(=O)NC3CC3)cn1)C2 : 7.20
CC(C)OC(=O)N1CCC2(CC1)CC(CCCOc1ccc(C(=O)NC3CC3)c(F)c1)C2 : 8.10
CC(C)c1noc(N2CCC3(CC2)CC(CCCOc2ccc(S(C)(=O)=O)cc2)C3)n1 : 7.46

a. CC(C)(C)OC(=O)N1CCC2(CCC(CCCOc3ccc(S(C)(=O)=O)cc3)CC2)CC1
b. Cc1ccc(N2CCC3(CC2)CC(CCCOc2ccc(S(C)(=O)=O)cc2)C3)nc1
Exercise: Please state the entry with greater pEC50 among a and b . Pick one; state its label.
Solution: b
(b: 6.46, a: 5.59)
